- target.under.test: T1, human PD-L1-his (human, UniProt Q9NZQ7 19-238)
- T1 construct: also called hPD-L1-his; human His-PD-L1
- experimental.details: SPR, Biacore, full kinetics, antigen 100-1.5625 nM

binder	display.unit	koff
112-VHH7-PTM (VHH, Humanized) VHH: EVQLVESGGGLVQPGGSLRLSCAASGSIFSSGTQFSDSKIDWYRQAPGKQREWIAGIFSTGSTIYEDSVKGRFAISRDNAKNMLYLQMNSLRAEDTAVYYCRVIGRGILAWGQGTLVTVSS	s⁻¹	0.00393
93-VH-2 (VHH, Humanized) VHH: EVQLVESGGGLVQPGGSLRLSCAASGFTFTFRHYVMGWVRQAPGKEREWVSAISWSGSGSYYADSVKGRFTISRDNSKNTVYLQMNSLRAEDTAVYYCAADMTTRMSQASREYDYWGQGTLVTVSS	s⁻¹	0.00162
93-VH-3 (VHH, Humanized) VHH: EVQLVESGGGLVQPGGSLRLSCAASGFTFTFRHYVMGWFRQAPGKGLEFVAAISWSGSGSYYADSVKGRFTISRDNSKNTLYLQMNSLRAEDTAVYYCAKDMTTRMSQASREYDYWGQGTLVTVSS	s⁻¹	0.00115
ALP-Tan-3p-93 (chimeric) (antibody, V domains shown, not shown: a dimerising Fc or GST; small tags and cut ends, Called chimeric; also called ALP-Tan-3p-93 chimeric antibody) VH: QVQLVESVGGLVQPGDSLRLSCLASGRTFTFRHYVMGWFRQAPGKEREFVAAISWSGSGSYYADSVKGRFTISRDNSKNMVFLQMNGLKPEDTAVYYCAADMTTRMSQASREYDYWGQGTQVTVSS	s⁻¹	0.000107
112-VHH3-PTM (VHH, Humanized) VHH: EVQLVESGGGLVQPGGSLRLSCAASGSIFSSGTQFSDSKIDWYRQAPGKQREWVSGIFSTGSTIYEDSVKGRFTISRDNAKNSLYLQMNSLRAEDTAVYYCRVIGRGILAWGQGTLVTVSS	s⁻¹	0.00498
93-VH-9 (VHH, Humanized) VHH: EVQLVESGGGLVQPGGSLRLSCAASGRTFTFRHYVMGWFRQAPGKGLEFVAAISWSGSGSYYADSVKGRFTISRDNSKNTLYLQMNSLRAEDTAVYYCAADMTTRMSQASREYDYWGQGTLVTVSS	s⁻¹	0.00031
112-VHH5-PTM (VHH, Humanized) VHH: EVQLVESGGGLVQPGGSLRLSCAASGSIFSSGTQFSDSKIDWYRQAPGKQRDWVAGIFSTGSTIYEDSVKGRFAISRDNAKNSLYLQMNSLRAEDTAVYYCRVIGRGILAWGQGTLVTVSS	s⁻¹	0.00149
93-VH-7 (VHH, Humanized) VHH: EVQLVESGGGLVQPGGSLRLSCAASGFTFTFRHYVMGWFRQAPGKGLEFVAAISWSGSGSYYADSVKGRFTISRDNSKNTLYLQMNSLRAEDTAVYYCAADMTTRMSQASREYDYWGQGTLVTVSS	s⁻¹	0.000339
